# Tested On: ΔF508-CFTR (Homo sapiens, UniProt P13569, DEL508-508)
# Construct: expressed in transfected cells; host or cells: Fischer rat thyroid (FRT) epithelial cells, stably transfected
# Sequence (P13569 with tags, fused parts or gaps DEL508-508): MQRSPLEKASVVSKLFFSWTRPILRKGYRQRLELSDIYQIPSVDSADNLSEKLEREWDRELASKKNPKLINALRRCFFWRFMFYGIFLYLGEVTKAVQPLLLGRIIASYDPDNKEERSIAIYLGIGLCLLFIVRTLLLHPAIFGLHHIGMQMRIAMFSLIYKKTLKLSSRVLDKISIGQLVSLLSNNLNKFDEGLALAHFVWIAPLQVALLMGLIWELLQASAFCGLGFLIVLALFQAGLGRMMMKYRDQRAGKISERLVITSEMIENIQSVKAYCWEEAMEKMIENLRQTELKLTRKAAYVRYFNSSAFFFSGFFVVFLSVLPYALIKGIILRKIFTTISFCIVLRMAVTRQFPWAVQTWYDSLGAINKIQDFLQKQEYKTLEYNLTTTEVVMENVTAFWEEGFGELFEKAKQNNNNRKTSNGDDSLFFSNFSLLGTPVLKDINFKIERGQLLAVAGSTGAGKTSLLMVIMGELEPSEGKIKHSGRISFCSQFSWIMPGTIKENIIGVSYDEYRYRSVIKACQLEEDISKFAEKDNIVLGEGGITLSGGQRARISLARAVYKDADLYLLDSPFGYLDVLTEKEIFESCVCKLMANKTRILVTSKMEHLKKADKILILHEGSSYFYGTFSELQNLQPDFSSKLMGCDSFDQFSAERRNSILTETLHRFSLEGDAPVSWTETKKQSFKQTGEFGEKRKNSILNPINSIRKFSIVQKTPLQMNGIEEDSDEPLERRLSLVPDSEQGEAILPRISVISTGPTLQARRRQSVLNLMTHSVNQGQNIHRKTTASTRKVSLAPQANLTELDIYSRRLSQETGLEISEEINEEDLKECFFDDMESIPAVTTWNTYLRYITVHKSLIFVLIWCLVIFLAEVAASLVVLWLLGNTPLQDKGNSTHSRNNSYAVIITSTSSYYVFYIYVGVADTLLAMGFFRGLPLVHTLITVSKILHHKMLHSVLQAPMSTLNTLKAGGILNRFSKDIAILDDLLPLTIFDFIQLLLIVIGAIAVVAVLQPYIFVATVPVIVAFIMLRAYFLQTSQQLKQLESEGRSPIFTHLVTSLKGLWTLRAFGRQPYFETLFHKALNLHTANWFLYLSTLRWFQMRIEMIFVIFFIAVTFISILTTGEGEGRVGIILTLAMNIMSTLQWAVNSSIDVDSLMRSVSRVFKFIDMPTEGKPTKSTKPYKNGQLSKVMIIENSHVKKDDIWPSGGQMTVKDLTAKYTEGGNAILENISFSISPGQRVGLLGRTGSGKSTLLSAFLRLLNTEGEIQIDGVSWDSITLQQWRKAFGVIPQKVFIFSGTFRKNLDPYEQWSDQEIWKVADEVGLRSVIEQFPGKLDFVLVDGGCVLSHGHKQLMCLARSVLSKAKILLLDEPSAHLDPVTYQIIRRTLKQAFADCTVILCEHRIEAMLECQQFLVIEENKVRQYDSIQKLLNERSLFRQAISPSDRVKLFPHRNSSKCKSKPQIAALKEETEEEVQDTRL
# Test Details: Corrector assay, YFP fluorescence plate reader iodide influx in ΔF508-CFTR expressing FRT cells
# Format: cell-based
# Assay Setup: Table IX, additional experiments; 18-24 h with compound at 37° C., forskolin 20 μM + genistein 50 μM
Quantity: Corrector Vmax

{"columns": ["Compound", "Tested On", "Measured"],
 "data": [
  ["COc1cccc(C(=O)N2CCN(c3nc4cc(C)cc(C)c4cc3C#N)CC2)c1 [drawing 171]", "ΔF508-CFTR (Homo sapiens, UniProt P13569, DEL508-508)", "inactive"],
  ["COc1ccc(C(=O)N2CCN(c3nc4cc(C)cc(C)c4cc3C#N)CC2)cc1 [drawing 172]", "ΔF508-CFTR (Homo sapiens, UniProt P13569, DEL508-508)", "inactive"],
  ["Cc1cc(C)c2cc(C#N)c(NCCNC(=O)c3ccccn3)nc2c1 [drawing 167]", "ΔF508-CFTR (Homo sapiens, UniProt P13569, DEL508-508)", "inactive"]
]}

* * *

# Tested On: ΔF508-CFTR (Homo sapiens, UniProt P13569, DEL508-508)
# Construct: expressed in transfected cells; host or cells: Fischer rat thyroid (FRT) epithelial cells, stably transfected
# Test Details: Potentiator assay, YFP fluorescence plate reader iodide influx in low-temperature rescued ΔF508-CFTR expressing FRT cells
# Type: cell-based
# Assay Setup: Table VIII; FRT cells 18-24 h at 27° C., forskolin 20 μM + test compound, I− influx
Quantity: Potentiator Vmax (µM/s)

{"columns": ["Compound", "Unit Info", "Measured"],
 "data": [
  ["COc1cccc(C(=O)NCCNc2nc3cc(C)cc(C)c3cc2C#N)c1 [drawing 146]", "µM/s", 306],
  ["COc1ccc(C(=O)NCCNc2nc3c(C)cccc3cc2C#N)cc1OC [drawing 137]", "µM/s", 250],
  ["Cc1cc(C)c2cc(C#N)c(NCCNC(=O)c3cccs3)nc2c1 [drawing 139]", "µM/s", 289],
  ["COc1ccc2nc(N3CCN(C(=O)c4ccccc4Br)CC3)c(C#N)cc2c1", "µM/s", 235]
]}

* * *

# Tested On: ΔF508-CFTR (Homo sapiens, UniProt P13569, DEL508-508)
# Construct: expressed in transfected cells; host or cells: Fischer rat thyroid (FRT) epithelial cells, stably transfected
# Test Details: Corrector assay, YFP fluorescence plate reader iodide influx in ΔF508-CFTR expressing FRT cells
# Assay type: cell-based
# Assay Setup: Table IX, additional experiments; 18-24 h with compound at 37° C., forskolin 20 μM + genistein 50 μM

{"columns": ["Compound", "Corrector Vmax"],
 "data": [
  ["Cc1cc(C)c2cc(C#N)c(N3CCN(C(=O)c4ccncc4)CC3)nc2c1", "inactive"],
  ["COc1ccccc1C(=O)NCCCNc1nc2cc(C)cc(C)c2cc1C#N", "inactive"],
  ["Cc1cc(C)c2cc(C#N)c(N3CCN(C(=O)c4cccnc4)CC3)nc2c1 [drawing 174]", "inactive"]
]}

* * *

# Tested On: ΔF508-CFTR (Homo sapiens, UniProt P13569, DEL508-508)
# Construct: expressed in transfected cells; host or cells: Fischer rat thyroid (FRT) epithelial cells, stably transfected
# Test Details: Corrector assay, YFP fluorescence plate reader iodide influx in ΔF508-CFTR expressing FRT cells
# Type: cell-based
# Assay Setup: Table VIII; FRT cells, 18-24 h with compound at 37° C., forskolin 20 μM + genistein 50 μM, I− influx
Quantity: Corrector Vmax

Answered cases to consult:
{"columns": ["Compound", "Quantity", "Measured"],
 "data": [
  ["Cc1cc(C)c2cc(C#N)c(NCCCNC(=O)c3ccncc3)nc2c1 [drawing 163]", "Corrector Vmax", "inactive"],
  ["Cc1cc(C)c2cc(C#N)c(N3CCN(C(=O)c4ccccn4)CC3)nc2c1 [drawing 155]", "Corrector Vmax", "inactive"],
  ["COc1ccccc1C(=O)N1CCN(c2nc3cc(C)cc(C)c3cc2C#N)CC1 [drawing 152]", "Corrector Vmax", "inactive"],
  ["COc1cccc(C(=O)N2CCN(c3nc4cc(C)cc(C)c4cc3C#N)CC2)c1 [drawing 153]", "Corrector Vmax", "inactive"]
]}

Q: Corrector Vmax for CCOc1ccccc1NC(=S)NCCNc1nc2c(C)cccc2cc1C#N [drawing 144] ?
A: inactive

Q: # query: Corrector Vmax of entry COc1ccc2nc(N3CCN(C(=O)c4ccccc4Cl)CC3)c(C#N)cc2c1
A: inactive
